- Protocol Summary: PK study: plasma and brain levels in mice
- Format: in vivo, C57BL/6 mice
- Conditions: mouse, plasma; 1 hr; measured in a previous study

- Molecule: "Cn1c(Nc2nc3ccc(OC(F)(F)F)cc3s2)nc2cc(C(=O)NCCOCCO)ccc21 [Comparator 1, reference compound]"
  concentration at 1 h [ng/mL]: 2070

---

- System: Human Heme Oxygenase-1 (HMOX-1)
- Protocol Summary: ELISA assay to measure human heme oxygenase-1 (HMOX-1) in HepG2 lysate
- Assay type: cell-based
- Conditions: human HMOX1 protein level in HepG2 lysate; * = average of 2 or more EC50 determinations; NA = Not Active; read-out: EC50
pEC50: −log10 of the molar value.
Value Kind: pEC50

- Compound: "Cn1c(Nc2nc3cc(F)ccc3o2)nc2cc(C(=O)O)ccc21 [Example 66]"
  Experimental Value: 5.27
- Compound: "Cn1c(Nc2nc3ccc(N4CCOCC4)cc3o2)nc2cc(C(=O)NCCOCCO)ccc21 [Example 136]"
  Experimental Value: 5.54
- Compound: "Cn1c(Nc2nc3ccccc3o2)nc2cc(C(=O)NCCOCCO)ccc21 [Example 17]"
  Experimental Value: 5.85
- Compound: "Cn1c(Nc2nc3ccc(OC(F)(F)F)cc3o2)nc2cc(C(=O)NC(CO)(CO)CO)ccc21 [Example 47]"
  Experimental Value: 5.80
